# test.system: T1, monkey CD19 on HEK293T-monkey CD19 cells (monkey)
# T1 construct: whole, on cells
# experiment: FACS on HEK293T-monkey CD19 cells
measure: pEC50
Numbers only, as −log10 of the molar value.

INSERT INTO assay_data (binder, reported_measurement) VALUES
  ('F6.2.9 (antibody, human IgG1, V domains shown, human-murine chimeric antibody, human IgG1) VH: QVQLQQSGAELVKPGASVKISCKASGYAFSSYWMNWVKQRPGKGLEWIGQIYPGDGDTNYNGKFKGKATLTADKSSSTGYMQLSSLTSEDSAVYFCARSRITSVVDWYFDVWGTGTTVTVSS VL: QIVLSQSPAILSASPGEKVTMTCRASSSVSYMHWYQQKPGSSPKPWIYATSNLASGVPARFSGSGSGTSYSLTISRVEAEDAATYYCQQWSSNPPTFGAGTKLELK', 7.07);

Now let's try a different one.
What measured pEC50 goes with F1-mab003 (antibody, human IgG1, V domains shown, human-murine chimeric antibody, human IgG1) VH: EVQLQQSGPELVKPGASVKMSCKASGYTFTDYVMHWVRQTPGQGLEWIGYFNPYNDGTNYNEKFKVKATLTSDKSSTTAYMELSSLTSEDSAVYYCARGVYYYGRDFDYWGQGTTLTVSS VL: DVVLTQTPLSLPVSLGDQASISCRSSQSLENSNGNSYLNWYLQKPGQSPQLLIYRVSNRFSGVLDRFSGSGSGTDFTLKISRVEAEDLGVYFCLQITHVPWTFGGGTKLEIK ?
8.75
